# System: HeLa
# Particulars: bulk resorufin, single well, 28.5 h, 10 µM, Bulk resorufin fluorescence
Parameter: % viability. Scope: all listed entries.
Output spec: scalar in %, unitless text.

Examples from the recorded data:
[
  {
    "Compound": "O=C(O)c1cccc(Sc2ncccc2C(F)(F)F)c1",
    "% viability [%]": 108
  },
  {
    "Compound": "C[C@H](Cn1nc2c(cc1=O)CCCCC2)NC(=O)c1ccco1",
    "% viability [%]": 88.3
  },
  {
    "Compound": "O=C(O)c1ccc(S(=O)(=O)Nc2ccc(O)c(-c3c(O)ccc4ccccc34)c2)cc1",
    "% viability [%]": 94.7
  },
  {
    "Compound": "CCC(Sc1nc(C)c(Cc2ccccc2)c(=O)[nH]1)C(=O)O (stereo not shown)",
    "% viability [%]": 91.7
  },
  {
    "Compound": "C=CCNC(=O)[C@@H]1C=CCN1C(=O)c1ccccc1F",
    "% viability [%]": 98.9
  },
  {
    "Compound": "Cc1cc(-c2nccnc2NCCCN2CCCC2=O)cc(C)c1O",
    "% viability [%]": 98
  }
]

[Q] Tell me reported % viability for Cc1ccc(CN2CCNC(=O)C2CC(=O)O)o1 (stereo not shown) , tested with HeLa.
[A] 91.7

[Q] Tell me reported % viability for `O=C(O)CCCCCN1C(=O)CC(c2ccc(Cl)cc2)CC1=O` , tested with HeLa.
[A] 102

[Q] Tell me reported % viability for `CC(=O)c1sc(NC(=O)c2ccc(Cl)cc2)nc1C` , tested with HeLa.
[A] 88.4

[Q] Tell me reported % viability for c1cncc(COc2cncc(OC3CCN(CCc4c[nH]c5ccccc45)C3)n2)c1 (stereo not shown) , tested with HeLa.
[A] 113
